target: PDGFRB (Homo sapiens, UniProt P09619); construct: Kinases are expressed as either kinase domains or full length constructs; made in house; assay: Kinase inhibition assay (33P transfer), PDGFRB; type: biochemical; details: read-out: PDGFRB-1
Sequence (P09619 33-1106, species assumed): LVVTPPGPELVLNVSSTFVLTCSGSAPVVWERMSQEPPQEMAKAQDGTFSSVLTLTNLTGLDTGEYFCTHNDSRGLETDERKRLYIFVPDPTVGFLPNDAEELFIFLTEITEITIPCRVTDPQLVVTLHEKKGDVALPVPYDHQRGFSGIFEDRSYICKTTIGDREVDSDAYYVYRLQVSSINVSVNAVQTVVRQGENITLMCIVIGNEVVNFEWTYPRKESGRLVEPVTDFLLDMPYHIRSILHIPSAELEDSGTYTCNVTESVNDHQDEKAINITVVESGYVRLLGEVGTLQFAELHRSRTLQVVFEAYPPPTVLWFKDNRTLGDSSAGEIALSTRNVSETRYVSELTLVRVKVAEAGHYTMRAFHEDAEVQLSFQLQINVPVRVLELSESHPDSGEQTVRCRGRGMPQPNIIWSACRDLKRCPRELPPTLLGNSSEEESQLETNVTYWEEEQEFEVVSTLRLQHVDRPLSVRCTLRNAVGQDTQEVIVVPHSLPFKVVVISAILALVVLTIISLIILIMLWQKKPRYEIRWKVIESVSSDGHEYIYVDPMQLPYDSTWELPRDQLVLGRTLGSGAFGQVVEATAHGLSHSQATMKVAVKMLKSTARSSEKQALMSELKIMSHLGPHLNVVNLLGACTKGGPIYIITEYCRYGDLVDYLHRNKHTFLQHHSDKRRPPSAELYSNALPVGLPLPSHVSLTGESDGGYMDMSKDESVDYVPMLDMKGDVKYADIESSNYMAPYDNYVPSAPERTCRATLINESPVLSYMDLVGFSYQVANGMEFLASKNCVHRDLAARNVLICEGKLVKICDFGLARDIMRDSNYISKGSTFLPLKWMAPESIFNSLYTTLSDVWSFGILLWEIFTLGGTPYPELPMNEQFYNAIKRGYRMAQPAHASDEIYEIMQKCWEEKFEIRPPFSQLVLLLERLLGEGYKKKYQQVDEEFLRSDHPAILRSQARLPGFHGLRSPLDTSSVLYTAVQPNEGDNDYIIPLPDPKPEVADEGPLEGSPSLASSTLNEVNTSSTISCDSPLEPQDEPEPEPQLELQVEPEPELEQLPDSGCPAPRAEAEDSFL
metric name: IC50

Sample records with IC50:
INSERT INTO results (structure_as_smiles, result) VALUES
  ('COc1cc(Nc2ncnc(N(C)c3cccc(Cl)c3)n2)cc(OC)c1', '1.08 to 6.45 µM'),
  ('Cc1ccc2c(c1)CCCN2c1ncnc(NCc2ccccn2)n1', '> 13.5 µM'),
  ('CCN(CC)CCN(C)c1ncnc(Nc2ccc(OC)c(OC)c2)n1', '> 12.5 µM'),
  ('COc1ccc(Nc2ncnc(N(C)c3cccc(C)c3)n2)cc1OC', '> 12.8 µM'),
  ('c1ccc(CNc2nc3ccccc3n2-c2ncnc(Nc3cccc(Cc4nnn[nH]4)c3)n2)nc1', '0.839 to 5.04 µM'),
  ('CCN(c1ncnc(Nc2cc(OC)c(OC)c(OC)c2)n1)c1cccc2ccccc12', '8.11 to 10.4 µM'),
  ('COc1ccc(Nc2ncnc(Nc3ccc(F)c(F)c3)n2)cc1OC', '1.11 to 6.68 µM'),
  ('COc1cc(Nc2ncnc(Nc3cc(OC)c(OCCN4CCOCC4)c(OC)c3)n2)cc(OC)c1OC', '4.42 to 6.45 µM');

Kindly note the recorded IC50 for Cc1cccc(Nc2ncnc(N(C)c3cccc(Cl)c3)n2)c1 , which is 7.37 to 10.7 µM

====

biological target: PDGFRB (Homo sapiens); construct: Kinases are expressed as either kinase domains or full length constructs; made in house; assay: Kinase inhibition assay (33P transfer), PDGFRB; assay type: biochemical; details: read-out: PDGFRB-1
metric name: IC50

Solved entries:
INSERT INTO assay_data (molecule, result) VALUES
  ('CN(c1cccc(Cl)c1)c1ncnc(Nc2cc(Cl)c(Cl)c(Cl)c2)n1 [Compound 804]', '8.43 to 10.8 µM'),
  ('Clc1cc(Nc2ncnc(Nc3ccc4c(cnn4Cc4ccccc4)c3)n2)cc(Cl)c1Cl [Compound 872]', '0.805 to 4.83 µM'),
  ('CN(c1ccc(Cl)c(Cl)c1)c1ncnc(Nc2ccc3c(cnn3Cc3ccccc3)c2)n1 [Compound 903]', '5.04 to 7.35 µM'),
  ('Nc1nc2ccccc2n1-c1ncnc(Nc2cccc(CC(=O)O)c2)n1 [Compound 544]', '1.11 to 6.64 µM'),
  ('Cc1ccc2c(c1)CCCN2c1ncnc(NCCN2CCOCC2)n1 [Compound 776]', '> 12.7 µM');

In plain terms, COc1cc(Nc2ncnc(Nc3cc(-c4ccc(Cl)c(Cl)c4)n[nH]3)n2)cc(OC)c1OC [Compound 589] has a documented IC50 of > 9.21 µM

Field IC50 (entry Fc1cccc(CNc2nc3ccccc3n2-c2ncnc(Nc3cccc(Cn4ccnn4)c3)n2)c1 [Compound 964] ) reads < 0.812 µM

====

Quick reference for pIC50 among some molecules
target: c-Met (Homo sapiens, UniProt P08581); construct: Kinases are expressed as either kinase domains or full length constructs; made in house; test: Kinase inhibition assay (33P transfer), c-Met; format: biochemical; details: Table 2, kinase inhibition class; read-out: Met-1
Sequence (P08581 25-1390): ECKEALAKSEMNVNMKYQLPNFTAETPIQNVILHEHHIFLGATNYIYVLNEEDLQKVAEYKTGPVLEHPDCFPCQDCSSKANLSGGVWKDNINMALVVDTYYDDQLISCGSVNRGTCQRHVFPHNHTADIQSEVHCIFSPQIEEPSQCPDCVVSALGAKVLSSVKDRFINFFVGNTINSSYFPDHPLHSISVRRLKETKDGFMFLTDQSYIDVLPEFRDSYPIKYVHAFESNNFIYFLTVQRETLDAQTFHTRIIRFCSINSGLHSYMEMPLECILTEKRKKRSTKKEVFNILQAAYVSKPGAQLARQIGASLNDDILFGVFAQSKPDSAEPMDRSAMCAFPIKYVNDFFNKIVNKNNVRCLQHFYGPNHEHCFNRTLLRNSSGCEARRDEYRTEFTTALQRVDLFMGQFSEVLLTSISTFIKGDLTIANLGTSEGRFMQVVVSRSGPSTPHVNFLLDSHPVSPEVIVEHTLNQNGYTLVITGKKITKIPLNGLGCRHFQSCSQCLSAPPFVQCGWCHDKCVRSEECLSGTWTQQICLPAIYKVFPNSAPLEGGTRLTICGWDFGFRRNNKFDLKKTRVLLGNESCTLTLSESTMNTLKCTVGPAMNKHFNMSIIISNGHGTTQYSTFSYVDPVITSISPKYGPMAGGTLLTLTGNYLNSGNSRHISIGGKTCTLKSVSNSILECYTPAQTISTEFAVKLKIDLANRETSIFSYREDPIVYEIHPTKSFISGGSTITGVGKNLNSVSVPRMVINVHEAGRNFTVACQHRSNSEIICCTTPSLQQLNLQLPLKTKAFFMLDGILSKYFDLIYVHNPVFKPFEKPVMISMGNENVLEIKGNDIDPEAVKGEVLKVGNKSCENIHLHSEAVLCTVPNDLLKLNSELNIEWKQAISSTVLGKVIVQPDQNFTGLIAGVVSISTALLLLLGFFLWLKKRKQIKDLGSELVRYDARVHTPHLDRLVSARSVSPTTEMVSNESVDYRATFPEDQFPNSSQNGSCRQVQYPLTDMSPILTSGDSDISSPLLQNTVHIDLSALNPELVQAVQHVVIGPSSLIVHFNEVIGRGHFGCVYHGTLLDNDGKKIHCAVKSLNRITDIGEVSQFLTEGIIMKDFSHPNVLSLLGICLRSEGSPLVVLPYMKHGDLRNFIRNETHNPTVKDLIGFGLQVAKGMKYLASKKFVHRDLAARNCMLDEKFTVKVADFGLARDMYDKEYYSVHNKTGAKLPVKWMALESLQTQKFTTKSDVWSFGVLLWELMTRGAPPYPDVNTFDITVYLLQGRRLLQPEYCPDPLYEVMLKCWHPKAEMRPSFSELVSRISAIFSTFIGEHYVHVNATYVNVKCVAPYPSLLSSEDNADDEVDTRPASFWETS
pIC50: −log10 of the molar value.

Example molecules with recorded pIC50:
INSERT INTO assay_data (molecule, result) VALUES
  ('COc1cc(Nc2ncnc(N(C)c3cccc4ccccc34)n2)cc(OC)c1OC [Compound 607]', '< 4.97'),
  ('Cc1cccc(Nc2ncnc(Nc3ccc4c(cnn4Cc4ccccc4)c3)n2)c1 [Compound 553]', '5.23 to 6.01'),
  ('O=c1[nH]c2ccccc2n1-c1ncnc(Nc2ccccn2)n1 [Compound 487]', '< 4.83');

Okay, next one:
Memo: COc1cc(Br)ccc1Nc1nc2ccccc2n1-c1ncnc(Nc2cc(OC)c(OC)c(OC)c2)n1 [Compound 1052] , reported pIC50: < 5.11
